B1: Far upstream element-binding protein 1, residues 98 to 169; numbered along this chain, Q96AE4 (parent)
chain: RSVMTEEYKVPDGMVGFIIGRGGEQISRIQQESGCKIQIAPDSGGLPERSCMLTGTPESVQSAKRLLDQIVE

- Variants of: B1
- assayProcedure: abundance fitness (aPCA) (normalised: wild type 0, dead -1); higher = more abundant; growth selection in yeast, the domain comes from the species named
- conditionsUsed: Homo sapiens
// class assignment uses abundance fitness with these ranges: 1: < -0.06; 2: ≥ -0.06 and < -0.02; 3: ≥ -0.02

Consider the worked cases shown below.
In: Determine which band this variant sits in: G23M
Out: 2

In: The entry to classify is V3I ; which class holds it?
Out: 3

In: Given Q25H , name the class its abundance fitness places it in.
Out: 2

In: Categorize the following entry: Q31R
Out: 3

In: Which bin should I file E7C under?
Out: 3

Others:
In: Given A40K , name the class its abundance fitness places it in.
Out: 2

In: Just checking, what class would you give A40T here?
Out: 2

In: Determine which band this variant sits in: E48V
Out: 2

In: Hello team, could you let me know which band the following variant falls into: I18R
Out: 1

In: Kindly state the category for this variant: Q61P
Out: 1

In: Given M52I , name the class its abundance fitness places it in.
Out: 3

In: For R21S , which abundance fitness bin applies?
Out: 3

In: Quick check: band for E72S
Out: 3

In: Please let me know in which category the item E58Y belongs.
Out: 2

In: Pick a category. Item: D12S
Out: 2

In: Into which category would you place S2I ?
Out: 1

In: Dear colleague, I would appreciate it if you could identify the bin for A40N and reply at your convenience.
Out: 1

In: For this variant, which bin applies? D68L
Out: 1

In: Which abundance fitness category applies to E7M here?
Out: 1

In: Consider K36E . To which abundance fitness class does it belong?
Out: 2

In: Tag the class for P41L
Out: 1
